Target: SARS-CoV-2 Wuhan-Hu-1 RBD (SARS-CoV-2, Wuhan-Hu-1 (GenBank …, UniProt P0DTC2))
Experiment: cell-based or functional assay
OUTCOME_MEASURE: neutralisation IC50, Wuhan-Hu-1 pseudovirus (µg/mL)

- BINDER: "JR042 (antibody, V domains shown) VH: EVQLVESGGGLIQPGGSLRLSCVASGVTVSSNYMSWVRQAPGKGLEWVSVIYPGGTTYYADSVKGRFTISRDNSKNTLYLQMTSLRAEDTAVYYCARGGDYHYGMDVWGQGTTVTVSS VL: DIQLTQSPSFLSASVGDRVTITCRASQGISSYLAWYQQKPGKAPKLLIYAASTLQSGVPSRFSGSGSGTEFTLTISSLQPEDFATYYCQLLNSYPPTFGQGTKLEIK"
  QUANTITATIVE_READOUT: 0.0209
- BINDER: "JR233 (antibody, V domains shown) VH: QVQRVQSGAEVKKPGSSVKVSCKASGGTFSSYAFSWVRQAPGQGLEWMGGIIPILRIADYAQKFQGRVTITADKSTSTAFMELSSLRSEDTAVYYCARGQIELVPAARVDYFDYWGQGTLVTVSS VL: DIQLTQSPSSLSASVGDRVTITCRASQSISSYLNWYQQKPGKAPKLLIYAASSLQSGVPSRFSGSGSGTDFTLTISSLQPEDFATYYCQQSYTTSFGPGTKVDIK"
  QUANTITATIVE_READOUT: 0.00933

Data credit: paper PMC9253517
